- EXPERIMENTAL TARGET: T1, human sortilin stably expressed on HEK 293 cells (HEK-SORT1 cells) (human, UniProt Q99523 78-831)
- T1 sequence (looked up): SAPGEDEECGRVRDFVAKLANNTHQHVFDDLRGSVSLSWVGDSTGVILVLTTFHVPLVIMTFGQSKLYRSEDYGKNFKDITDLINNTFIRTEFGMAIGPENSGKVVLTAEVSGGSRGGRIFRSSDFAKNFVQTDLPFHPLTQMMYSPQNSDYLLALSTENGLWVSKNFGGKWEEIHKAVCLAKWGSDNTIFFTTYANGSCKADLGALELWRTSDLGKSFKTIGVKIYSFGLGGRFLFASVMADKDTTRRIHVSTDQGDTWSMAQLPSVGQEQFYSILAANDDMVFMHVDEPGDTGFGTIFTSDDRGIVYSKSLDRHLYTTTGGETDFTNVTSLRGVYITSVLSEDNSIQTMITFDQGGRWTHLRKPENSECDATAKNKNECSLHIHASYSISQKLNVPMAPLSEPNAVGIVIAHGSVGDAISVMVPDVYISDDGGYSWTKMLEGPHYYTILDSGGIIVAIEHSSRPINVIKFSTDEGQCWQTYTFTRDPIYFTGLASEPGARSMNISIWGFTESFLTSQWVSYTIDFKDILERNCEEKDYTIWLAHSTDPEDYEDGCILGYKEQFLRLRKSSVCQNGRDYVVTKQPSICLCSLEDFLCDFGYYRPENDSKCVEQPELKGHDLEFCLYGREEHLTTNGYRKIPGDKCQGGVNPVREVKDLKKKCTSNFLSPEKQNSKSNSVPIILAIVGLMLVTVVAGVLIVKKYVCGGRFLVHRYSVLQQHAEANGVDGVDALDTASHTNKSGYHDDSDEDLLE
- EXPERIMENT: cell-based or functional assay
Ends that are not written are not given here.
METRIC: Mean Fluorescence Intensity (MFI), uptake 37C-4C, at 333 nM
Output spec: scalar in MFI, unitless text.

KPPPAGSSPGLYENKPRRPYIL (not fully specified (residue 1); also: Cy3 label attached by BCN click to the azide) [Compound 17-AH-1492, Cy3-labeled extended neurotensin (eNT, …)] :: 1030

Consider the additional binder presented here.
Please give the measured Mean Fluorescence Intensity (MFI), uptake 37C-4C, at 333 nM for this binder: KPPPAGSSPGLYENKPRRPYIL (not fully specified (residue 1); also: X side chain clicked via BCN (triazole) and 6-aminohexanol linker to 5' end of oligonucleotide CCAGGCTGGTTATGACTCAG (MOE, 3'-Cy3))
812
